Values compiled from ChEMBL document CHEMBL1772938.

For each of the compounds below, state its MIC.
Tested on: Nakaseomyces glabratus
experiment description: Antimicrobial activity against Candida glabrata ATCC 90030 by CLSI method
Type: functional
Form entry: value (µg/mL) — number only.

Please look up its MIC: [I-].c1ccc(Sc2cc3ccccc3[n+](CCCCCC3CCCCC3)c2)cc1
20

Likewise for COc1cccc(Sc2cc3ccccc3[n+](CCCCCC3CCCCC3)c2)c1.[I-] ?
20

Likewise for FC(F)(F)c1ccccc1Sc1cc2ccccc2[n+](CCCCCC2CCCCC2)c1.[I-] ?
5

Likewise for C[C@@H]1[C@H](O)[C@@H](C)/C=C/C=C/C=C/C=C/C=C/C=C/C=C/[C@H](O[C@@H]2O[C@H](C)[C@@H](O)[C@H](N)[C@@H]2O)C[C@@H]2O[C@](O)(C[C@@H](O)C[C@@H](O)[C@H](O)CC[C@@H](O)C[C@@H](O)CC(=O)O[C@H]1C)C[C@H](O)[C@H]2C(=O)O ?
1.3

Likewise for N#Cc1cccc(Sc2cc3ccccc3[n+](CCCCCC3CCCCC3)c2)c1.[I-] ?
20

Likewise for FC(F)(F)c1cccc(Sc2cc3ccccc3[n+](CCCCCC3CCCCC3)c2)c1.[I-] ?
10

Likewise for Cc1cccc(Sc2cc3ccccc3[n+](CCCCCC3CCCCC3)c2)c1.[I-] ?
10

---

Tested on: Nakaseomyces glabratus
experiment description: Antimicrobial activity against Candida glabrata ATCC 90030 by CLSI method
Type: functional
observation type: MFC (µg/mL)
Form entry: value (µg/mL) — number only.

Please look up its MFC: Cc1ccc(Sc2cc3ccccc3[n+](CCCCCC3CCCCC3)c2)cc1.[I-]
10

Likewise for C[C@@H]1[C@H](O)[C@@H](C)/C=C/C=C/C=C/C=C/C=C/C=C/C=C/[C@H](O[C@@H]2O[C@H](C)[C@@H](O)[C@H](N)[C@@H]2O)C[C@@H]2O[C@](O)(C[C@@H](O)C[C@@H](O)[C@H](O)CC[C@@H](O)C[C@@H](O)CC(=O)O[C@H]1C)C[C@H](O)[C@H]2C(=O)O ?
2.5

Likewise for Cc1cccc(Sc2cc3ccccc3[n+](CCCCCC3CCCCC3)c2)c1.[I-] ?
10

Likewise for Cc1ccccc1Sc1cc2ccccc2[n+](CCCCCC2CCCCC2)c1.[I-] ?
20

Likewise for FC(F)(F)c1ccc(Sc2cc3ccccc3[n+](CCCCCC3CCCCC3)c2)cc1.[I-] ?
10

---

experiment description: Selectivity index, ratio of TC50 for african green monkey Vero cells to IC50 for Cryptococcus neoformans ATCC 90113
Assay type: toxicity, cell-based
test settings: read-out: Selectivity Index
For each of the molecules below, state its selectivity ratio.
Give the figure by itself; no unit, no explanation.

Please look up its selectivity ratio: Fc1cccc(Sc2cc3ccccc3[n+](CCCCCC3CCCCC3)c2)c1.[I-]
13

Likewise for [I-].c1ccc(Sc2cc3ccccc3[n+](CCCCCC3CCCCC3)c2)cc1 ?
9.2

Likewise for Oc1ccccc1Sc1cc2ccccc2[n+](CCCCCC2CCCCC2)c1.[I-] ?
9.3

Likewise for COc1cccc(Sc2cc3ccccc3[n+](CCCCCC3CCCCC3)c2)c1.[I-] ?
11

Likewise for Cc1ccccc1Sc1cc2ccccc2[n+](CCCCCC2CCCCC2)c1.[I-] ?
13

Likewise for Cc1cccc(Sc2cc3ccccc3[n+](CCCCCC3CCCCC3)c2)c1.[I-] ?
19

Likewise for N#Cc1ccccc1Sc1cc2ccccc2[n+](CCCCCC2CCCCC2)c1.[I-] ?
9.1

Likewise for Brc1ccccc1Sc1cc2ccccc2[n+](CCCCCC2CCCCC2)c1.[I-] ?
32

Likewise for Cc1ccc(Sc2cc3ccccc3[n+](CCCCCC3CCCCC3)c2)cc1.[I-] ?
14

Likewise for C[C@@H]1[C@H](O)[C@@H](C)/C=C/C=C/C=C/C=C/C=C/C=C/C=C/[C@H](O[C@@H]2O[C@H](C)[C@@H](O)[C@H](N)[C@@H]2O)C[C@@H]2O[C@](O)(C[C@@H](O)C[C@@H](O)[C@H](O)CC[C@@H](O)C[C@@H](O)CC(=O)O[C@H]1C)C[C@H](O)[C@H]2C(=O)O ?
14

---

Tested on: Cryptococcus neoformans
experiment description: Antimicrobial activity against Cryptococcus neoformans ATCC 90113 by CLSI method
Type: functional
For each of the compounds below, state its MFC.
Form entry: value (µg/mL) — number only.

Please look up its MFC: FC(F)(F)c1ccc(Sc2cc3ccccc3[n+](CCCCCC3CCCCC3)c2)cc1.[I-]
0.6

Likewise for FC(F)(F)c1ccc(Sc2cc3ccccc3[n+](CCCCCc3ccccc3)c2)cc1.[I-] ?
10

---

System: Candida albicans
experiment description: Antimicrobial activity against Candida albicans ATCC 90028 by alamar blue assay
Assay type: functional, organism-based
Please note: IC50 exactly at 1 µg/mL is 0 (no). Only values below 1 µg/mL get 1 (yes).

Consider the molecule FC(F)(F)c1ccc(Sc2cc3ccccc3[n+](CCCCCC3CCCCC3)c2)cc1.[I-] . Is its IC50 strictly less than 1 µg/mL?
1 (yes)

Likewise for Fc1cccc(Sc2cc3ccccc3[n+](CCCCCC3CCCCC3)c2)c1.[I-] ?
0 (no)

Likewise for Cc1ccccc1Sc1cc2ccccc2[n+](CCCCCC2CCCCC2)c1.[I-] ?
0 (no)

Likewise for FC(F)(F)c1ccc(Sc2cc3ccccc3[n+](CCCCCc3ccccc3)c2)cc1.[I-] ?
0 (no)

Likewise for FC(F)(F)c1cccc(Sc2cc3ccccc3[n+](CCCCCC3CCCCC3)c2)c1.[I-] ?
0 (no)

---

Test system: Cryptococcus neoformans
experiment description: Antimicrobial activity against Cryptococcus neoformans ATCC 90113 by CLSI method
Assay type: functional
observation type: log10 MFC (log10 of the value in µg/mL)
Could you please treat all values as log10 of MFC in µg/mL?

Please look up its log10 MFC: Brc1ccccc1Sc1cc2ccccc2[n+](CCCCCC2CCCCC2)c1.[I-]
0.11

Likewise for Brc1cccc(Sc2cc3ccccc3[n+](CCCCCc3ccccc3)c2)c1.[I-] ?
1.00

Likewise for Brc1ccccc1Sc1cc2ccccc2[n+](CCCCCc2ccccc2)c1.[I-] ?
1.30

Likewise for Oc1cccc(Sc2cc3ccccc3[n+](CCCCCC3CCCCC3)c2)c1.[I-] ?
0.70

Likewise for FC(F)(F)c1cccc(Sc2cc3ccccc3[n+](CCCCCC3CCCCC3)c2)c1.[I-] ?
-0.22

Likewise for Cc1cccc(Sc2cc3ccccc3[n+](CCCCCC3CCCCC3)c2)c1.[I-] ?
-0.40

Likewise for FC(F)(F)c1cccc(Sc2cc3ccccc3[n+](CCCCCc3ccccc3)c2)c1.[I-] ?
1.00

Likewise for N#Cc1ccccc1Sc1cc2ccccc2[n+](CCCCCC2CCCCC2)c1.[I-] ?
1.00

Likewise for C[C@@H]1[C@H](O)[C@@H](C)/C=C/C=C/C=C/C=C/C=C/C=C/C=C/[C@H](O[C@@H]2O[C@H](C)[C@@H](O)[C@H](N)[C@@H]2O)C[C@@H]2O[C@](O)(C[C@@H](O)C[C@@H](O)[C@H](O)CC[C@@H](O)C[C@@H](O)CC(=O)O[C@H]1C)C[C@H](O)[C@H]2C(=O)O ?
0.70

Likewise for FC(F)(F)c1ccccc1Sc1cc2ccccc2[n+](CCCCCC2CCCCC2)c1.[I-] ?
0.11

Likewise for N#Cc1cccc(Sc2cc3ccccc3[n+](CCCCCC3CCCCC3)c2)c1.[I-] ?
0.70

Likewise for Oc1ccccc1Sc1cc2ccccc2[n+](CCCCCC2CCCCC2)c1.[I-] ?
0.11

Likewise for FC(F)(F)c1ccccc1Sc1cc2ccccc2[n+](CCCCCc2ccccc2)c1.[I-] ?
1.00

Likewise for Fc1cccc(Sc2cc3ccccc3[n+](CCCCCC3CCCCC3)c2)c1.[I-] ?
0.40

Likewise for Cc1ccc(Sc2cc3ccccc3[n+](CCCCCc3ccccc3)c2)cc1.[I-] ?
0.70

Likewise for [I-].c1ccc(Sc2cc3ccccc3[n+](CCCCCC3CCCCC3)c2)cc1 ?
0.40

---

experiment description: Cytotoxicity against african green monkey Vero cells after 48 hrs by neutral red assay
Format: cell-based
test settings: chlorocebus sabaeus, read-out: TC50
Please note: CC50 at 48 h exactly at 6 µg/mL is No. Only values below 6 µg/mL get Yes.

Consider the molecule COc1cccc(Sc2cc3ccccc3[n+](CCCCCc3ccccc3)c2)c1.[I-] . Is its CC50 at 48 h strictly less than 6 µg/mL?
No

Likewise for Brc1cccc(Sc2cc3ccccc3[n+](CCCCCc3ccccc3)c2)c1.[I-] ?
No

Likewise for Cc1ccccc1Sc1cc2ccccc2[n+](CCCCCC2CCCCC2)c1.[I-] ?
Yes

Likewise for [I-].c1ccc(Sc2cc3ccccc3[n+](CCCCCC3CCCCC3)c2)cc1 ?
Yes

Likewise for COc1cccc(Sc2cc3ccccc3[n+](CCCCCC3CCCCC3)c2)c1.[I-] ?
Yes

Likewise for Fc1cccc(Sc2cc3ccccc3[n+](CCCCCC3CCCCC3)c2)c1.[I-] ?
No

Likewise for C[C@@H]1[C@H](O)[C@@H](C)/C=C/C=C/C=C/C=C/C=C/C=C/C=C/[C@H](O[C@@H]2O[C@H](C)[C@@H](O)[C@H](N)[C@@H]2O)C[C@@H]2O[C@](O)(C[C@@H](O)C[C@@H](O)[C@H](O)CC[C@@H](O)C[C@@H](O)CC(=O)O[C@H]1C)C[C@H](O)[C@H]2C(=O)O [AMPHOTERICIN B] ?
No

Likewise for Cc1ccc(Sc2cc3ccccc3[n+](CCCCCc3ccccc3)c2)cc1.[I-] ?
Yes

Likewise for Oc1ccccc1Sc1cc2ccccc2[n+](CCCCCC2CCCCC2)c1.[I-] ?
No

Likewise for Brc1ccccc1Sc1cc2ccccc2[n+](CCCCCC2CCCCC2)c1.[I-] ?
No

Likewise for COc1ccc(Sc2cc3ccccc3[n+](CCCCCc3ccccc3)c2)cc1.[I-] ?
No
